Assay: absorption and photoluminescence characteristics (absorption and fluorescence emission spectra, quantum efficiency, lifetime)
Type: physicochemical
Details: in toluene
Measured λem, maximum emission wavelength, listed per entry.
Report only the number, with the unit nm understood.

Given the compound `CCC1=C(C)C2=C(c3ccc(-c4cc(-c5ccc(C6=C7C(C)=C(CC)C(C)=[N+]7[B-](F)(F)n7c(C)c(CC)c(C)c76)cc5)cc(-c5ccc(C6=C7C(C)=C(CC)C(C)=[N+]7[B-](F)(F)n7c(C)c(CC)c(C)c76)cc5)c4)cc3)c3c(C)c(CC)c(C)n3[B-](F)(F)[N+]2=C1C` , what is its reported λem, maximum emission wavelength?
542

Param item: `CCC1=C(C)C2=C(c3ccc(C#Cc4ccc(N(c5ccc(C#Cc6ccc(C7=C8C(C)=C(CC)C(C)=[N+]8[B-](F)(F)n8c(C)c(CC)c(C)c87)cc6)cc5)c5ccc(C#Cc6ccc(C7=C8C(C)=C(CC)C(C)=[N+]8[B-](F)(F)n8c(C)c(CC)c(C)c87)cc6)cc5)cc4)cc3)c3c(C)c(CC)c(C)n3[B-](F)(F)[N+]2=C1C`
543

// next record `CCC1=C(C)C2=C(c3ccc(-c4cn(-c5ccc(C#Cc6ccc(N(c7ccc(C#Cc8ccc(-n9cc(-c%10ccc(C%11=C%12C(C)=C(CC)C(C)=[N+]%12[B-](F)(F)n%12c(C)c(CC)c(C)c%12%11)cc%10)nn9)cc8)cc7)c7ccc(C#Cc8ccc(-n9cc(-c%10ccc(C%11=C%12C(C)=C(CC)C(C)=[N+]%12[B-](F)(F)n%12c(C)c(CC)c(C)c%12%11)cc%10)nn9)cc8)cc7)cc6)cc5)nn4)cc3)c3c(C)c(CC)c(C)n3[B-](F)(F)[N+]2=C1C`
542

What do we get for `CCC1=C(C)C2=C(c3ccc(C#Cc4ccc(-c5cc(-c6ccc(C#Cc7ccc(C8=C9C(C)=C(CC)C(C)=[N+]9[B-](F)(F)n9c(C)c(CC)c(C)c98)cc7)cc6)cc(-c6ccc(C#Cc7ccc(C8=C9C(C)=C(CC)C(C)=[N+]9[B-](F)(F)n9c(C)c(CC)c(C)c98)cc7)cc6)c5)cc4)cc3)c3c(C)c(CC)c(C)n3[B-](F)(F)[N+]2=C1C` ?
544

====

Experiment: two-photon absorption (TPA) cross-sections determined by two-photon excitation fluorescence (TPEF)
Assay type: physicochemical
Conditions: in toluene, 10^−4 M; at 990 nm
Readout label: σ2, effective TPA cross-section at 990 nm (GM)
Expressed in GM, but write only the number.

Return reported σ2, effective TPA cross-section at 990 nm; argument: CCC1=C(C)C2=C(c3ccc(-c4ccc(C5=C6C(C)=C(CC)C(C)=[N+]6[B-](F)(F)n6c(C)c(CC)c(C)c65)cc4)cc3)c3c(C)c(CC)c(C)n3[B-](F)(F)[N+]2=C1C [LP42]
48

====

Experiment: absorption and photoluminescence characteristics (absorption and fluorescence emission spectra, quantum efficiency, lifetime)
Type: physicochemical
Details: in toluene
Readout label: λem, maximum emission wavelength (nm)
Give just the numeric value; nm need not be written.

Quick check: λem, maximum emission wavelength of `CCC1=C(C)C2=C(c3ccc(-c4ccc(C5=C6C(C)=C(CC)C(C)=[N+]6[B-](F)(F)n6c(C)c(CC)c(C)c65)cc4)cc3)c3c(C)c(CC)c(C)n3[B-](F)(F)[N+]2=C1C` ?
542

====

Assay: two-photon absorption (TPA) cross-sections determined by two-photon excitation fluorescence (TPEF)
Assay type: physicochemical
Details: at 700 nm; ratio to CL76
Readout label: effective TPA cross-section relative to model CL76 at 700 nm (times)
Provide only the numeric value, understood in times.

CCC1=C(C)C2=C(c3ccc(C#Cc4ccc(N(c5ccc(C#Cc6ccc(C7=C8C(C)=C(CC)C(C)=[N+]8[B-](F)(F)n8c(C)c(CC)c(C)c87)cc6)cc5)c5ccc(C#Cc6ccc(C7=C8C(C)=C(CC)C(C)=[N+]8[B-](F)(F)n8c(C)c(CC)c(C)c87)cc6)cc5)cc4)cc3)c3c(C)c(CC)c(C)n3[B-](F)(F)[N+]2=C1C [CL64] ... 9
CCC1=C(C)C2=C(c3ccc(-c4cc(-c5ccc(C6=C7C(C)=C(CC)C(C)=[N+]7[B-](F)(F)n7c(C)c(CC)c(C)c76)cc5)cc(-c5ccc(C6=C7C(C)=C(CC)C(C)=[N+]7[B-](F)(F)n7c(C)c(CC)c(C)c76)cc5)c4)cc3)c3c(C)c(CC)c(C)n3[B-](F)(F)[N+]2=C1C [LP52] ... 4
CCC1=C(C)C2=C(c3ccc(C#Cc4ccc(-c5cc(-c6ccc(C#Cc7ccc(C8=C9C(C)=C(CC)C(C)=[N+]9[B-](F)(F)n9c(C)c(CC)c(C)c98)cc7)cc6)cc(-c6ccc(C#Cc7ccc(C8=C9C(C)=C(CC)C(C)=[N+]9[B-](F)(F)n9c(C)c(CC)c(C)c98)cc7)cc6)c5)cc4)cc3)c3c(C)c(CC)c(C)n3[B-](F)(F)[N+]2=C1C [MC237] ... 4

Next compound, effective TPA cross-section relative to model CL76 at 700 nm to be filled in.
For CCC1=C(C)C2=C(c3ccc(-c4ccc(C5=C6C(C)=C(CC)C(C)=[N+]6[B-](F)(F)n6c(C)c(CC)c(C)c65)cc4)cc3)c3c(C)c(CC)c(C)n3[B-](F)(F)[N+]2=C1C [LP42] , what is its reported effective TPA cross-section relative to model CL76 at 700 nm?
3

====

Assay: two-photon absorption (TPA) cross-sections determined by two-photon excitation fluorescence (TPEF)
Type: physicochemical
Settings: in toluene, 10^−4 M; at 990 nm
Below, each of the molecules is paired with its reported σ2, effective TPA cross-section at 990 nm value.
Hi! Could you send only the number? It should be in GM, unit omitted.

// known answers, use as guide
CCC1=C(C)C2=C(c3ccc(-c4cn(-c5ccc(C#Cc6ccc(N(c7ccc(C#Cc8ccc(-n9cc(-c%10ccc(C%11=C%12C(C)=C(CC)C(C)=[N+]%12[B-](F)(F)n%12c(C)c(CC)c(C)c%12%11)cc%10)nn9)cc8)cc7)c7ccc(C#Cc8ccc(-n9cc(-c%10ccc(C%11=C%12C(C)=C(CC)C(C)=[N+]%12[B-](F)(F)n%12c(C)c(CC)c(C)c%12%11)cc%10)nn9)cc8)cc7)cc6)cc5)nn4)cc3)c3c(C)c(CC)c(C)n3[B-](F)(F)[N+]2=C1C ... 40
CCC1=C(C)C2=C(c3ccc(C#Cc4ccc(-c5cc(-c6ccc(C#Cc7ccc(C8=C9C(C)=C(CC)C(C)=[N+]9[B-](F)(F)n9c(C)c(CC)c(C)c98)cc7)cc6)cc(-c6ccc(C#Cc7ccc(C8=C9C(C)=C(CC)C(C)=[N+]9[B-](F)(F)n9c(C)c(CC)c(C)c98)cc7)cc6)c5)cc4)cc3)c3c(C)c(CC)c(C)n3[B-](F)(F)[N+]2=C1C ... 34
CCC1=C(C)C2=C(c3ccc(-c4cc(-c5ccc(C6=C7C(C)=C(CC)C(C)=[N+]7[B-](F)(F)n7c(C)c(CC)c(C)c76)cc5)cc(-c5ccc(C6=C7C(C)=C(CC)C(C)=[N+]7[B-](F)(F)n7c(C)c(CC)c(C)c76)cc5)c4)cc3)c3c(C)c(CC)c(C)n3[B-](F)(F)[N+]2=C1C ... 75

# query: σ2, effective TPA cross-section at 990 nm of entry `CCC1=C(C)C2=C(c3ccc(C#Cc4ccc(N(c5ccc(C#Cc6ccc(C7=C8C(C)=C(CC)C(C)=[N+]8[B-](F)(F)n8c(C)c(CC)c(C)c87)cc6)cc5)c5ccc(C#Cc6ccc(C7=C8C(C)=C(CC)C(C)=[N+]8[B-](F)(F)n8c(C)c(CC)c(C)c87)cc6)cc5)cc4)cc3)c3c(C)c(CC)c(C)n3[B-](F)(F)[N+]2=C1C`
45
